Test system: FgenL mRNA construct
Experiment: Size Exclusion Base Hydrolysis Degradation Assay, FgenL
Type: biochemical, Trichoderma atroviride
Details: FgenL, 25 mM amino acid, 50 mM CAPS pH 11, room temperature, 2 hrs, replicate 1
Experimental: Basic assay procedure: RNA samples were diluted to 1.0 mg/mL in DNAase/RNAase free water. Amino acids were dissolved in water to a stock solution of 100 mM and a solution of 500 mM CAPS pH 11 was used. […] To determine the amount of 1 M NaOH needed to adjust the final pH to 11.0 after the addition of all sample components, the sample volume was increased 100 fold (5 mL), the volume of 1 M NaOH recorded and this value was translated back down to the 50 μL sample volume. […]
Cut-off 5000 on T2 R1 peak area at 250 nm: below means satisfied, at or above means not satisfied.

N[C@@H](CC(=O)O)C(=O)O
satisfied

Determine if N[C@@H](Cc1ccc(O)cc1)C(=O)O shows T2 R1 peak area at 250 nm strictly lower than 5000.
not satisfied

Determine if CC(C)[C@H](N)C(=O)O shows T2 R1 peak area at 250 nm strictly lower than 5000.
satisfied

Determine if N[C@@H](CCC(=O)N[C@@H](CS)C(=O)NCC(=O)O)C(=O)O shows T2 R1 peak area at 250 nm strictly lower than 5000.
satisfied

Determine if N[C@@H](CO)C(=O)O shows T2 R1 peak area at 250 nm strictly lower than 5000.
not satisfied

Determine if NC(=O)C[C@H](N)C(=O)O shows T2 R1 peak area at 250 nm strictly lower than 5000.
not satisfied

Determine if CC(C)C[C@H](N)C(=O)O shows T2 R1 peak area at 250 nm strictly lower than 5000.
satisfied

Determine if CSCC[C@H](N)C(=O)O shows T2 R1 peak area at 250 nm strictly lower than 5000.
satisfied

Determine if N[C@@H](CCC(=O)O)C(=O)O shows T2 R1 peak area at 250 nm strictly lower than 5000.
not satisfied

Determine if N[C@@H](Cc1ccccc1)C(=O)O shows T2 R1 peak area at 250 nm strictly lower than 5000.
not satisfied

Determine if C[C@H](N)C(=O)O shows T2 R1 peak area at 250 nm strictly lower than 5000.
not satisfied

Determine if O=C(O)[C@@H]1CCCN1 shows T2 R1 peak area at 250 nm strictly lower than 5000.
satisfied

Determine if CC[C@H](C)[C@H](N)C(=O)O shows T2 R1 peak area at 250 nm strictly lower than 5000.
satisfied

Determine if NCC(=O)O shows T2 R1 peak area at 250 nm strictly lower than 5000.
satisfied

Numbers sourced from patent US20240122865A1.
